Test system: SARS-CoV-2
ASSAY NAME: microbe, parasite or virus in culture
Format: cell-based, SARS-CoV-2 (hCoV-19/Korea/KCDC06/2020)
CONDITION DESCRIPTION: Severe acute respiratory syndrome coronavirus 2, Vero, 48 h; read-out: EC50 (reducing number of spike-positive cells by 50%)
REPORTED ENDPOINT: EC50 (nM)

{"COMPOUND STRING": "CCC(CC)COC(=O)[C@H](C)N[P@](=O)(OC[C@H]1O[C@@](C#N)(c2ccc3c(N)ncnn23)[C@H](O)[C@@H]1O)Oc1ccccc1", "TEST VALUE": 8900}
{"COMPOUND STRING": "c1ccc(-c2cc(Nc3nc(-c4ccncc4)nc4ccccc34)n[nH]2)cc1", "TEST VALUE": 1400}
{"COMPOUND STRING": "Cc1cccc(/C=N/Nc2cc(N3CCOCC3)nc(OCCc3ccccn3)n2)c1", "TEST VALUE": 300}

---

TESTED TARGET: PIP5K1C (Homo sapiens, UniProt O60331)
Sequence (O60331 whole entry): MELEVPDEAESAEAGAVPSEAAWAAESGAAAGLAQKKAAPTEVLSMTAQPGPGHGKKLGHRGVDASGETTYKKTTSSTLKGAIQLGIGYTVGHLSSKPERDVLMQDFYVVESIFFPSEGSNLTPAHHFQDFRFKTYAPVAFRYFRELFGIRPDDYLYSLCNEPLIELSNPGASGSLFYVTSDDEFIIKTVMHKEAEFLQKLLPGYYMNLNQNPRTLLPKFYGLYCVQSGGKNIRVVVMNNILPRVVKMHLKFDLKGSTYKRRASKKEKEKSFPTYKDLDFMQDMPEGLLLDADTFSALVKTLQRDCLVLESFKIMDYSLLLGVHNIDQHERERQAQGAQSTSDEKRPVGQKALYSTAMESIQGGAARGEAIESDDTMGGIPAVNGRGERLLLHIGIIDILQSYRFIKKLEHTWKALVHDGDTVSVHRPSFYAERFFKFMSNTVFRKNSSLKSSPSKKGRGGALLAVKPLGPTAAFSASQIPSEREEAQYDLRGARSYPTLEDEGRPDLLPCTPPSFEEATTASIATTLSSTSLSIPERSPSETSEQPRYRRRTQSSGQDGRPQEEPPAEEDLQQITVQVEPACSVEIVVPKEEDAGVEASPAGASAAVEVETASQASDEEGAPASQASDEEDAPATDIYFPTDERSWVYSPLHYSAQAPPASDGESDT
pIC50: −log10 of the molar value.

{"COMPOUND STRING": "c1ccc(-c2cc(Nc3nc(-c4ccncc4)nc4ccccc34)n[nH]2)cc1", "pIC50": 7.22}
